Would you mind telling me the reported IC50 of each entry?
SYSTEM_TESTED: Nav1.7 (or SCN9A) channel (Homo sapiens)
Construct: expressed in transfected cells
Sequence (Q15858 whole entry): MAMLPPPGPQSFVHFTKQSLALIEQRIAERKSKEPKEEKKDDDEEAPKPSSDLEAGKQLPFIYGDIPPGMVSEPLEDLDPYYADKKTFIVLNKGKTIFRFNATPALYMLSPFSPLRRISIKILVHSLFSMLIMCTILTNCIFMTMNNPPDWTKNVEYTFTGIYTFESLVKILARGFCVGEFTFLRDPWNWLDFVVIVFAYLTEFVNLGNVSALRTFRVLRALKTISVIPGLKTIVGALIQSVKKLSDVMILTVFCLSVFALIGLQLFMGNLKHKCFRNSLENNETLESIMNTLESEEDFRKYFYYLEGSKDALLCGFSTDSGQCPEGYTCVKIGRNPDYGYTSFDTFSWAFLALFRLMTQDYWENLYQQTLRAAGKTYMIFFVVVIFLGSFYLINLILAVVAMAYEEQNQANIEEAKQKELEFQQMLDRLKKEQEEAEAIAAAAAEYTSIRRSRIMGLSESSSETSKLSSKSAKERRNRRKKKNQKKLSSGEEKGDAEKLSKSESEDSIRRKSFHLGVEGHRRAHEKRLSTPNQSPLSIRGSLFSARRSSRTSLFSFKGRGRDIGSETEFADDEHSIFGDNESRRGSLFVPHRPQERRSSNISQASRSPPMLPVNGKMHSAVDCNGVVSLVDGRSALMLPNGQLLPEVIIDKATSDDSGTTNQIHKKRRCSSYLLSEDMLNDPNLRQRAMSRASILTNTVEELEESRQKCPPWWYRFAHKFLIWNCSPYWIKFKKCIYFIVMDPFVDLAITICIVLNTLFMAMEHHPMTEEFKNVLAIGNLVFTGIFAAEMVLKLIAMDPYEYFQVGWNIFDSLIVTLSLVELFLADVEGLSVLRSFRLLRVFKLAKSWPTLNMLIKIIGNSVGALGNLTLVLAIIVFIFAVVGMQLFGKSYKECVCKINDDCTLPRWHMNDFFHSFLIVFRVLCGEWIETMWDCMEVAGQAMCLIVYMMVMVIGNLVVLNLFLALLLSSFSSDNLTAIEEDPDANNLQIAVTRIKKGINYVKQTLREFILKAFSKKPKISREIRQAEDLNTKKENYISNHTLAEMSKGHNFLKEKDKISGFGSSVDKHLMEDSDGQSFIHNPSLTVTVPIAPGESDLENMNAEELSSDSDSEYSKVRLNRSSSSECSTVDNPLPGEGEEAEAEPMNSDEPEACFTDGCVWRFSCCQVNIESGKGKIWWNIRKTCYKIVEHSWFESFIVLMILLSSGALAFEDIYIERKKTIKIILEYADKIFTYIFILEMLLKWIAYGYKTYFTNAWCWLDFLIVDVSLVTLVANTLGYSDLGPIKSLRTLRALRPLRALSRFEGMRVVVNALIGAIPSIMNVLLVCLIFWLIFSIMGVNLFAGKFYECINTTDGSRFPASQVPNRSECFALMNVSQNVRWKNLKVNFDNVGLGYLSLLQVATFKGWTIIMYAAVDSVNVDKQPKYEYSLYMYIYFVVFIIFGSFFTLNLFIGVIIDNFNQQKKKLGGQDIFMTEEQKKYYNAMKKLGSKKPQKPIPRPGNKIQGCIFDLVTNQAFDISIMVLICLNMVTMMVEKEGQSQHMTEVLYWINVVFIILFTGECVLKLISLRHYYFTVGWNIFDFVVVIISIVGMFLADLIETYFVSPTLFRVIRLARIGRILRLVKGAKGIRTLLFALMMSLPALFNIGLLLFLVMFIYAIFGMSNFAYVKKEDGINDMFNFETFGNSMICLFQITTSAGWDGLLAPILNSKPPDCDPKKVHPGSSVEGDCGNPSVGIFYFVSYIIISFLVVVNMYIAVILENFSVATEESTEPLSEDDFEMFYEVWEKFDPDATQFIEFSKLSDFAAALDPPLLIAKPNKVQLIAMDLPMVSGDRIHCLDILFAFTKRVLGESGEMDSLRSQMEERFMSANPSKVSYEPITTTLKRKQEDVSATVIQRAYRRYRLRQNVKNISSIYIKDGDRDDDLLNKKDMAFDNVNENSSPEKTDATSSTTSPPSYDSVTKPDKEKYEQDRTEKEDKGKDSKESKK
PROTOCOL_TEXT: Nav1.7 PatchXpress 7000 automated electrophysiology assay (HEK cells stably expressing hSCN9A)
Format: cell-based
CONDITIONS_USED: voltage-clamped at V1/2 of inactivation, read-out: Nav1.7 EIC50
Please reply with the bare figure in nM and do not write the unit itself.

What value of IC50 has been recorded for this entry: CS(=O)(=O)NC(=O)c1cc(Cl)c(Oc2ccc(Cl)cc2)cc1F [Example 295]
97

Another: CS(=O)(=O)NC(=O)c1ccc(Oc2ccc(Cl)c(C(F)(F)F)c2)c(F)c1 [Example 42]
590

What do you have for CS(=O)(=O)NC(=O)c1cc(Cl)c(Oc2ccc(C(F)(F)F)c(Cl)c2)cc1F [Example 9] ?
47

And then CS(=O)(=O)NC(=O)c1ccc(Oc2ccccc2-c2ccccc2)cc1 [Example 268] , what is it?
5300

Also need O=C(NS(=O)(=O)c1ccccc1)c1cc(F)c(Oc2ccc(Cl)c(C(F)(F)F)c2)cc1F [Example 57] , thanks.
920

What do we get for CS(=O)(=O)NC(=O)c1ccc(Oc2cccc(C(F)(F)F)c2)c(Cl)c1 [Example 266] ?
270

Could you do the same for CS(=O)(=O)NC(=O)c1cc(F)c(Oc2ccc(OC(F)F)c(Cl)c2)cc1F [Example 13] , please?
2500

Next up: CS(=O)(=O)NC(=O)c1ccc(Oc2ccc(Cl)c(Cl)c2)cc1 [Example 182]
1400

What do we get for COc1c(C(=O)NS(C)(=O)=O)ccc(Oc2cccc(Cl)c2)c1F [Example 225] ?
3300

What about COc1ccc(OC(F)(F)F)cc1Oc1cc(F)c(C(=O)NS(C)(=O)=O)cc1F [Example 314] ?
1100
